- Tested on: Colon cancer organoid
- TEST_SUMMARY: Identification of compartment-specific drug sensitivities in O20 CRC organoid-stroma F20 CAF co-cultures. Organoid is transduced with Lucferase2-P2A-EGFP lentivirus, fibroblast with Renilla-dsRed lentivirus. Dual-Glo Luciferase assay is used to report viability data.
- Type: functional, Homo sapiens
- Design: dose or concentration left out as unconfirmed
- PROTOCOL_CONDITIONS: Transduced with Lucferase2-P2A-EGFP lentivirus
PROPERTY: Cell Viability (%)
Numbers only, in %.

{"COMPOUND": "O=C1c2ccc(Nc3ccc(F)cc3F)cc2CCc2ccc(OC[C@H](O)CO)cc21 [Skepinone-L]", "DISPLAY_UNIT": "%", "MEASUREMENT": 88.6485}

State the recorded Cell Viability for every item in the following list.
1. COc1cc(C#N)ccc1S(=O)(=O)Nc1ccc2c(c1)cc(C)c(=O)n2C
2. CC(=O)N1CCC(c2ccc(C(=O)NC(=N)N)cc2C(F)(F)F)CC1 [BI 9627]
3. CC(C)Oc1ccc(-c2nn([C@@H](C)c3oc4ccc(F)cc4c(=O)c3-c3cccc(F)c3)c3ncnc(N)c23)cc1F [UMBRALISIB]

1: 96.9289; 2: 96.0735; 3: 103.314
